Molecular target: CSN5 (COP-9 signalosome deneddylase subunit) (Homo sapiens, UniProt Q92905)
Construct: purified CSN complex; with COP9 signalosome (CSN) complex; substrate Nedd8-conjugated SCF^Skp2 (Cullin-1)
Sequence (Q92905 2-334): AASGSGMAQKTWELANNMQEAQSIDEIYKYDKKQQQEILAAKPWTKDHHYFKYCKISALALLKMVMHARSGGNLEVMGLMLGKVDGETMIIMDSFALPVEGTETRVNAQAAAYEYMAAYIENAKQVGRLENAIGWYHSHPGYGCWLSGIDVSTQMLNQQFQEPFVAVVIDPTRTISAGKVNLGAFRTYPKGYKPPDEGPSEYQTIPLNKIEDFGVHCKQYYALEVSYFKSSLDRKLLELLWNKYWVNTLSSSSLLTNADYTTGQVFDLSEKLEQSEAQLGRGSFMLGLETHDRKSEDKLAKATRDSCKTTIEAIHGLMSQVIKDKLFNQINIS
Assay: fluorescence polarization deneddylation assay with purified CSN and Oregon Green-Nedd8-SCF^Skp2
pIC50: −log10 of the molar value.
Property Name: pIC50

Report the value of pIC50 obtained on CSN5 (COP-9 signalosome deneddylase subunit) (Homo sapiens, UniProt Q92905) for C[C@H]1c2cccc(O)c2C(=O)C2=C(O)[C@]3(O)C(=O)C(C(N)=O)=C(O)[C@@H](N(C)C)[C@@H]3[C@@H](O)[C@@H]21 .
~3.96
